# Test system: human recombinant FAAH (Homo sapiens (Human))
# Sequence (O00519 whole entry): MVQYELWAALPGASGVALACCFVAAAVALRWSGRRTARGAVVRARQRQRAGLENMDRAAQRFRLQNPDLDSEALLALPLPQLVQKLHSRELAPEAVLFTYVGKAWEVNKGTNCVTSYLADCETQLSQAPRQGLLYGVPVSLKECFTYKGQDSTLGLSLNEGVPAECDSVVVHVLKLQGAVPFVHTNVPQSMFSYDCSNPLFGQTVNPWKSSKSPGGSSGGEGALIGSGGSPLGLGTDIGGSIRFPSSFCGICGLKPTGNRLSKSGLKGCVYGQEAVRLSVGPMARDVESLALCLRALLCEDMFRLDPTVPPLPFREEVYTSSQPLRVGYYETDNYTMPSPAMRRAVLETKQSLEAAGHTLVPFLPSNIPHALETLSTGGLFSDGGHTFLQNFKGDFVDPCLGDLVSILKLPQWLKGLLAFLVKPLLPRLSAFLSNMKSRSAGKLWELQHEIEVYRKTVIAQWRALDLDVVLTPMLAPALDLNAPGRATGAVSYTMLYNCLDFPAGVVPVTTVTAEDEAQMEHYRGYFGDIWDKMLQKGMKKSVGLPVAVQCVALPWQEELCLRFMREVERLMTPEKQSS
# Test description: In vitro inhibition of human recombinant FAAH activity (Cayman FAAH inhibitor screening kit, AMC arachidonoyl amide hydrolysis)
Quick list: IC50 per entry.

Consider the worked cases shown below.
O=C(N1CCN(C(c2ccc3c(c2)COCO3)c2ccc3c(c2)COCO3)CC1)n1cnc(Cl)n1 [Example 2]	> 10 µM
O=C(Oc1ccc([N+](=O)[O-])cc1[N+](=O)[O-])N1CCN(C(c2ccc3c(c2)COCO3)c2ccc3c(c2)COCO3)CC1 [Example 13]	> 10 µM
O=C(N1CCCCC1)N1CCN(C(c2ccc3c(c2)COCO3)c2ccc3c(c2)COCO3)CC1 [Example 17]	> 50 µM
N#Cc1ncn(C(=O)N2CCC(=C(c3ccc4c(c3)COCO4)c3ccc4c(c3)COCO4)CC2)n1 [Example 124]	1 to 10 µM
O=C(On1nnc2ccc(C(F)(F)F)cc21)N1CCN(C(c2ccc3c(c2)COCO3)c2ccc3c(c2)COCO3)CC1 [Example 22]	> 50 µM
N#Cc1ncn(C(=O)N2CC3(C2)CN(C(c2ccc4c(c2)COCO4)c2ccc4c(c2)COCO4)C3)n1 [Example 80]	10 to 50 µM

Lookup result for N#Cc1ccc(C(c2ccc(C#N)cc2)N2CCN(C(=O)n3nnc4cc(C#N)ccc43)CC2)cc1 [Example 101] ; measured IC50: > 50 µM

molecule O=C(N1CCN(C(c2ccc3c(c2)COCO3)c2ccc3c(c2)COCO3)CC1)n1cccn1 [Example 1] , IC50 observed: > 50 µM

Lab note: N#Cc1ncn(C(=O)N2CCN(C(c3ccc4c(c3)OCCO4)c3ccc4c(c3)OCCO4)CC2)n1 [Example 92] gave IC50 of ~10 µM

Documented IC50 of O=C(OC(C(F)(F)F)C(F)(F)F)N1CCN(Cc2ccc(C(F)(F)F)cc2N2CCCC2)CC1 [ABX-1431] : > 50 µM

So for N#Cc1ccc2c(c1)nnn2C(=O)N1CCN(C(c2ccc3c(c2)COCO3)c2ccc3c(c2)COCO3)CC1 [Example 49] , the logged IC50 turned out to be > 20 µM

IC50 for COc1ccc(N(c2ccc3c(c2)OCO3)C2CCN(C(=O)n3nnc4cc(C#N)ccc43)CC2)cc1 [Example 73] is 0.1 to 1 µM

Summary for this molecule, N#Cc1ncn(C(=O)N2CCN(C(c3ccc4occc4c3)c3ccc4occc4c3)CC2)n1 [Example 117] : IC50 is 0.1 to 1 µM

IC50 in this record for N#Cc1ccc2nnn(C(=O)N3CCC(N(c4ccc(C(F)(F)F)cc4)c4ccc5c(c4)OCO5)CC3)c2c1 [Example 69] : 0.1 to 1 µM

get_value(item= N#Cc1ccc2nnn(C(=O)N3CCCN(C(c4ccc5c(c4)COCO5)c4ccc5c(c4)COCO5)CC3)c2c1 [Example 51] , readout=IC50) returns > 10 µM

Memo: O=C(Oc1ccc(F)cc1)N1CCN(C(c2ccc3c(c2)COCO3)c2ccc3c(c2)COCO3)CC1 [Example 5] , reported IC50: > 50 µM

Sure, the documented IC50 for Cc1ncn(C(=O)N2CCN(C(c3ccc4c(c3)COCO4)c3ccc4c(c3)COCO4)CC2)n1 [Example 28] is > 20 µM

// COc1ccc(N(c2ccc(F)cc2)C2CCN(C(=O)n3nnc4cc(C#N)ccc43)CC2)cc1 [Example 66] : IC50 value = 0.1 to 1 µM

Query N#Cc1ncn(C(=O)N2C3CCC2CC(=C(c2ccc4c(c2)COCO4)c2ccc4c(c2)COCO4)C3)n1 [Example 127] yields IC50 of > 50 µM

response.value for N#Cc1ncn(C(=O)N2CC3(CC(=C(c4ccc5c(c4)COCO5)c4ccc5c(c4)COCO5)C3)C2)n1 [Example 126] (field: IC50) = 1 to 10 µM

For N#Cc1ncn(C(=O)N2CCN(C(c3ccc(-n4cccn4)cc3)c3ccc(-n4cccn4)cc3)CC2)n1 [Example 116] the molecule record lists IC50 as 10 to 50 µM

According to the records, this molecule N#Cc1ncn(C(=O)N2CCC3(CCN(C(c4ccc5c(c4)COCO5)c4ccc5c(c4)COCO5)C3)C2)n1 (stereo not drawn) [Example 85] displays IC50 of 1 to 10 µM

Lab note: O=C(N1CCN(C(c2ccc3c(c2)COCO3)c2ccc3c(c2)COCO3)CC1)n1nnc2ccc(C(F)(F)F)cc21 [Example 44] gave IC50 of > 10 µM

Reported IC50 of N#Cc1ccc2nnn(C(=O)N3CC4(CC(OC(c5ccc6c(c5)COCO6)c5ccc6c(c5)COCO6)C4)C3)c2c1 [Example 59] : ~10 µM

* * *

# maps each entry to its pIC50
# Test system: human recombinant FAAH (Homo sapiens (Human))
# Test description: In vitro inhibition of human recombinant FAAH activity (Cayman FAAH inhibitor screening kit, AMC arachidonoyl amide hydrolysis)
pIC50: −log10 of the molar value.

# count of solved cases: 10
Cn1ncc2cc(C(=C3CCN(C(=O)n4cnc(C#N)n4)CC3)c3ccc4c(cnn4C)c3)ccc21	~5.00
COc1ccc(C(c2ccc(OC)c(OC)c2)N2CCN(C(=O)n3nnc4cc(C#N)ccc43)CC2)cc1OC	< 4.30
COc1ccc(C(c2ccc(OC)c(OC)c2)N2CCN(C(=O)n3nnc4ccc(C#N)cc43)CC2)cc1OC	< 4.30
N#Cc1ccc2c(c1)nnn2C(=O)N1CCC(N(c2ccc(C(F)(F)F)cc2)c2ccc3c(c2)OCO3)CC1	6.00 to 7.00
N#Cc1ncn(C(=O)N2CC3(CCN(C(c4ccc5c(c4)COCO5)c4ccc5c(c4)COCO5)CC3)C2)n1	< 4.30
O=C(OC(C(F)(F)F)C(F)(F)F)C1CCN(C(c2ccc3c(c2)COCO3)c2ccc3c(c2)COCO3)CC1	< 4.30
O=C(Oc1c(F)c(F)c(F)c(F)c1F)N1CCN(C(c2ccc3c(c2)COCO3)c2ccc3c(c2)COCO3)CC1	< 4.30
COc1ccc(C(c2ccc(OC)cc2)N2CCN(C(=O)n3nnc4cc(C#N)ccc43)CC2)cc1	5.00 to 6.00
N#Cc1ccc2nnn(C(=O)N3CCC(N(c4ccc5c(c4)OCO5)c4ccc5c(c4)OCO5)CC3)c2c1	6.00 to 7.00
O=C(N1CCN(C(c2ccc3c(c2)COCO3)c2ccc3c(c2)COCO3)CC1)n1ncc2ccccc21	< 4.30

Short answer for `O=C(N1CCN(C(c2ccc3c(c2)COCO3)c2ccc3c(c2)COCO3)CC1)n1cncn1` : pIC50 was 5.00 to 6.00

Summary for this molecule, `N#Cc1ccc2c(c1)nnn2C(=O)N1CCC(N(c2ccc(F)cc2)c2ccc3c(c2)OCO3)CC1` : pIC50 is 7.00 to 8.00

Value of measured pIC50 for the entry `O=C(OC1CCCCC1)N1CCN(C(c2ccc3c(c2)COCO3)c2ccc3c(c2)COCO3)CC1` : < 4.30

Reported pIC50 for `Cn1ncc2cc(C(=C3CCN(C(=O)n4nnc5ccccc54)CC3)c3ccc4c(cnn4C)c3)ccc21` was ~4.30

pIC50 in this record for `N#Cc1ccc2nnn(C(=O)N3CCN(C(c4ccc5c(c4)COCO5)c4ccc5c(c4)COCO5)CC3)c2c1` : < 4.70

* * *

# Test system: human recombinant MAGL (Homo sapiens (Human), UniProt Q99685)
# Sequence (Q99685 whole entry): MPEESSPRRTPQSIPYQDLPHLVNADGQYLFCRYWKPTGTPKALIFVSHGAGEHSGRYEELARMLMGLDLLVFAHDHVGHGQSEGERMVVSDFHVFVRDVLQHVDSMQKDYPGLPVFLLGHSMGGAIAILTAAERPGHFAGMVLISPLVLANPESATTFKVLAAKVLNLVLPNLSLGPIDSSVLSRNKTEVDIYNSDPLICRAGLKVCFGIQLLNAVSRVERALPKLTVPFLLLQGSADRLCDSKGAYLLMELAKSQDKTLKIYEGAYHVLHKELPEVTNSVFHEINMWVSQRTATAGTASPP
# Test description: In vitro inhibition of human recombinant MAGL activity (Cayman inhibitor screening kit, 4-nitrophenylacetate hydrolysis)
# Type: biochemical
# Assay setup: human recombinant MAGL; read-out: Inhibition on MAGL activity (IC50)
This listing pairs compounds with measured IC50.

Previously resolved entries follow.
Cc1ncn(C(=O)N2CCN(C(c3ccc4c(c3)COCO4)c3ccc4c(c3)COCO4)CC2)n1 [Example 28]	0.001 to 0.02 µM
CCC(CC)OC(=O)N1CCN(C(c2ccc3c(c2)COCO3)c2ccc3c(c2)COCO3)CC1 [Example 15]	> 0.1 µM
N#Cc1ccc2c(c1)nnn2C(=O)N1CCN(C(c2ccc(F)cc2)c2ccc(F)cc2)CC1 [Example 121]	0.001 to 0.01 µM

The measured IC50 associated with N#Cc1ncn(C(=O)N2CCC3(CC2)CCN(C(c2ccc4c(c2)COCO4)c2ccc4c(c2)COCO4)CC3)n1 [Example 79] reads 0.001 to 0.01 µM

IC50 reported for this compound O=C(N1CCN(C(c2ccc3c(c2)COCO3)c2ccc3c(c2)COCO3)CC1)n1cnc(Cl)n1 [Example 2] : 0.001 to 0.01 µM

What the record says about N#Cc1ccc2nnn(C(=O)N3CCC(N(c4ccc(C(F)(F)F)cc4)c4ccc5c(c4)OCO5)CC3)c2c1 [Example 69] : IC50 is 0.001 to 0.01 µM

* * *

# Test system: human recombinant FAAH (Homo sapiens (Human))
# Test description: In vitro inhibition of human recombinant FAAH activity (Cayman FAAH inhibitor screening kit, AMC arachidonoyl amide hydrolysis)
Measure: IC50

N#Cc1ccc(C(c2ccc(C#N)cc2)N2CCN(C(=O)n3cnc(C#N)n3)CC2)cc1 [Example 102]	1 to 10 µM
N#Cc1ncn(C(=O)N2CCN(C(c3ccc(-n4cccn4)cc3)c3ccc4c(c3)COCO4)CC2)n1 (stereo not shown) [Example 120]	> 50 µM
COc1ccc(C(c2ccc(OC)cc2)N2CCN(C(=O)n3nnc4ccc(C#N)cc43)CC2)cc1 [Example 88]	~50 µM
N#Cc1ncn(C(=O)N2CCC3(CC2)CCN(C(c2ccc4c(c2)COCO4)c2ccc4c(c2)COCO4)CC3)n1 [Example 79]	~50 µM
N#Cc1ncn(C(=O)N2CC3CC(=C(c4ccc5c(c4)COCO5)c4ccc5c(c4)COCO5)CC3C2)n1 (stereo not shown) [Example 125]	1 to 10 µM
O=C(N1CCN(C(c2ccc3c(c2)COCO3)c2ccc3c(c2)COCO3)CC1)n1ncc(-c2ccccc2)n1 [Example 26]	1 to 10 µM

Reported IC50 of O=C(ON1C(=O)CCC1=O)N1CCN(C(c2ccc3c(c2)COCO3)c2ccc3c(c2)COCO3)CC1 [Example 6] : > 50 µM
